The reader will find pIC50 measurements below, all made with SARS-CoV-2 Main Protease (SARS-CoV-2) (UniProt P0DTD1).
The meaning of pIC50 here: minus log10 of the concentration in molar units.

Here are 2 compounds together with their reported answers.
- Compound: "Cc1c(Br)cnc(Nc2cc(Cl)cc(CC(=O)Nc3cncc4ccccc34)c2)c1[N+](=O)[O-]"
  pIC50: 5.66
- Compound: "Cn1nnnc1C1=CCN(C(=O)CC2(C(=O)Nc3cncc4ccccc34)CCOc3ccc(Cl)cc32)CC1 (configuration not stated)"
  pIC50: 5.04

Ask | Lab note: need pIC50 for CC(C)(O)c1ccc(N(C(=O)c2cocn2)C(C(=O)NCCc2cccc(F)c2)c2cccnc2)cc1 (configuration not stated) on SARS-CoV-2 Main Protease (SARS-CoV-2) (UniProt P0DTD1), anyone have it?
Reply | 4.58

Ask | Lab note: need pIC50 for CN(C)S(=O)(=O)N1Cc2ccc(Cl)cc2C(C(=O)Nc2cnccc2C(F)(F)F)C1 (configuration not stated) on SARS-CoV-2 Main Protease (SARS-CoV-2) (UniProt P0DTD1), anyone have it?
Reply | 4.54

Ask | Lab note: need pIC50 for "O=C(CCl)N1CCN(S(=O)(=O)c2ccsc2)CC1" on SARS-CoV-2 Main Protease (SARS-CoV-2) (UniProt P0DTD1), anyone have it?
Reply | 5.79

Ask | Lab note: need pIC50 for COC(=O)/C=C/C(=O)N(C(=O)[C@H]1CCOc2ccc(Cl)cc21)c1cncc2ccccc12 (stereo in doubt) on SARS-CoV-2 Main Protease (SARS-CoV-2) (UniProt P0DTD1), anyone have it?
Reply | 5.36
